Target: FAAH (Mus musculus)
Construct: A fragment of liver, left lung lobe and brain without cerebellum were removed; from tissue; host or cells: male NMRI mice; brain (without cerebellum) and liver homogenates
Sequence (O08914 whole entry, the tested form may be a part): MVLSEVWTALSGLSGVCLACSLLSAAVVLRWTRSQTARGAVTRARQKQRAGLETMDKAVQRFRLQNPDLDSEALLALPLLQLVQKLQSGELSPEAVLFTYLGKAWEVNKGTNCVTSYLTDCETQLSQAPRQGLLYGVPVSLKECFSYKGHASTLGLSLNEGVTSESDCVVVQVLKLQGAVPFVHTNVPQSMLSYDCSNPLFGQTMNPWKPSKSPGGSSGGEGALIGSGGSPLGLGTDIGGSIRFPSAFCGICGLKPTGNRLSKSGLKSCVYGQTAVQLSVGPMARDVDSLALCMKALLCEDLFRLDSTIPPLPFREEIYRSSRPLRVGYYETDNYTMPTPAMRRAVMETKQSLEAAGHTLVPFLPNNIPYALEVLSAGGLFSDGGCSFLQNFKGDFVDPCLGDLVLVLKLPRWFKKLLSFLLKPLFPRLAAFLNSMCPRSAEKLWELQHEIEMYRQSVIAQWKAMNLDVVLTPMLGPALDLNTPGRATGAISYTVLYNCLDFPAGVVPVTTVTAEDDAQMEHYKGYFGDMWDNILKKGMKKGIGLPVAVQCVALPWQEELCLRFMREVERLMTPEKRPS
Assay: In vivo FAAH inhibition after oral dosing, remaining activity in brain homogenate (BRh, central nervous tissue)
Parameters: species or system NMRI mice
Details: brain homogenate, 3 mg/kg, 8 h
Below is a list of entries, each paired with its recorded In Vivo BRh 3 mg/kg 8 h, remaining FAAH activity value.

Known results for molecules:
{"columns": ["MOLECULE", "TARGET_OF_ASSAY", "ENDPOINT_VALUE"],
 "data": [
  ["CCC1(C)OCCN1C(=O)n1cnc(-c2ccc(Cl)cc2)c1 (centres unmarked)", "FAAH (Mus musculus)", "33.5 % of control"],
  ["O=C(N1CCC(CCCc2ccccc2)CC1)n1nnc2ccccc21", "FAAH (Mus musculus)", "51.7 % of control"],
  ["COc1cccc(-c2cccc(-c3cn(C(=O)N(C)C4CCCCC4)cn3)c2)c1", "FAAH (Mus musculus)", "99 % of control"],
  ["COc1cccc(-c2cccc(-c3cn(C(=O)N4COCC4(C)C)cn3)c2)c1", "FAAH (Mus musculus)", "67.7 % of control"]
]}

We next turn to a different molecule, shown below.
-- ask Specify reported In Vivo BRh 3 mg/kg 8 h, remaining FAAH activity for the molecule shown: `Cc1c(-c2ccccc2)ncn1C(=O)N(C)Cc1ccccc1`
-- reply 115 % of control

* * *

Molecular target: FAAH (Rattus norvegicus)
Construct: Frozen brains (without cerebellum) from Wistar rats were used; from tissue; host or cells: Wistar rat brain (without cerebellum), washed membrane pellets
Sequence (P97612 whole entry): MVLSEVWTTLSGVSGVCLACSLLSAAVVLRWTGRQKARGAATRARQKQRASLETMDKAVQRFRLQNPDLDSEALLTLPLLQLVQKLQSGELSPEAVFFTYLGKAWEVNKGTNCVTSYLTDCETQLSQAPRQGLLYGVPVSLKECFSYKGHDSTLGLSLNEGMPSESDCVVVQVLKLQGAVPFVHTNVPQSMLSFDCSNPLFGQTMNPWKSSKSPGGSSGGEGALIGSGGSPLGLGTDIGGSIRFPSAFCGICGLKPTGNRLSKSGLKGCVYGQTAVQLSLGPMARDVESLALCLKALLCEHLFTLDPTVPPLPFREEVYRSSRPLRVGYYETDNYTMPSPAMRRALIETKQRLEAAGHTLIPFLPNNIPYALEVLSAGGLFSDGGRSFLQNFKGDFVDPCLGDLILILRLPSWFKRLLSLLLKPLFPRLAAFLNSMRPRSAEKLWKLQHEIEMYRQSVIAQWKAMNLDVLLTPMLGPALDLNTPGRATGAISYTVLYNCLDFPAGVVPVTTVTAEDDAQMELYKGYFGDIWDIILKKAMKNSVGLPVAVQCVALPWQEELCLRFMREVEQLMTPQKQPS
Experiment: In vitro FAAH activity in rat brain membranes, 3H-AEA substrate, % of control
Format: biochemical, Wistar rats
Settings: 100 nM test compound, low value = strong inhibitor
EXPERIMENTAL_READOUT: In Vitro FAAH activity, 100 nM

Known results for compounds:
{"columns": ["COMPOUND", "In Vitro FAAH activity, 100 nM"],
 "data": [
  ["CN(C(=O)n1cnc(-c2cccc(OCCN3CCNCC3)c2)c1)c1ccccc1.Cl.Cl [Compound 200]", "100.1 % of control"],
  ["O=C(N1CCCC1)n1nnc2ccccc21 [Compound 98]", "0.6 % of control"],
  ["O=C(N1CCS(=O)(=O)C1)n1nnc2ccccc21 [Compound 167]", "96.2 % of control"],
  ["COc1ccc(-c2ncn(C(=O)N(C)c3ccc(F)cc3)n2)cc1 [Compound 66]", "80.9 % of control"],
  ["Cl.O=C(N1CCC(N2CCCC2)CC1)n1nnc2ccccc21 [Compound 92]", "96 % of control"],
  ["O=C(N1CCN(c2ccccc2)CC1)n1cnc(-c2cccs2)n1 [Compound 155]", "0.4 % of control"],
  ["CN(C)C(=O)n1cnc(-c2ccc(Oc3ccc(C#N)cc3)cc2)n1 [Compound 140]", "58.6 % of control"],
  ["CC1(C)OCCN1C(=O)n1cnc(-c2ccccc2)c1Cl [Compound 268]", "104.1 % of control"],
  ["CN(C(=O)n1cnc(Cc2ccccc2)n1)c1ccccc1 [Compound 160]", "18.8 % of control"],
  ["CN(C(=O)n1cnc(-c2ccc(F)cc2)c1)c1ccccc1 [Compound 29]", "52.5 % of control"]
]}

-- ask Specify reported In Vitro FAAH activity, 100 nM for the compound shown: O=C(N1CCOCC1)n1nc(Cl)c2ccccc21 [Compound 72]
-- reply 87.6 % of control

-- ask Specify reported In Vitro FAAH activity, 100 nM for the compound shown: NC(=O)C1CCN(C(=O)n2nnc3ccccc32)CC1 [Compound 179]
-- reply 49 % of control

-- ask Specify reported In Vitro FAAH activity, 100 nM for the compound shown: CC1(C)COCN1C(=O)n1cnc(-c2cccc(Oc3ccc(C(N)=O)cc3)c2)n1 [Compound 209]
-- reply 101.5 % of control

-- ask Specify reported In Vitro FAAH activity, 100 nM for the compound shown: NC(=O)c1ccc(Oc2cccc(-c3ncn(C(=O)N4CCc5ccccc5C4)n3)c2)cc1 [Compound 207]
-- reply 31.6 % of control

-- ask Specify reported In Vitro FAAH activity, 100 nM for the compound shown: CN(C(=O)n1cnc(-c2ccc(C(N)=O)cc2)c1)c1ccccc1 [Compound 113]
-- reply 90.3 % of control

-- ask Specify reported In Vitro FAAH activity, 100 nM for the compound shown: NC(=O)c1ccc(Oc2cccc(-c3ncn(C(=O)N4CCOCC4)n3)c2)cc1 [Compound 210]
-- reply 73.3 % of control

-- ask Specify reported In Vitro FAAH activity, 100 nM for the compound shown: O=C(N1CCC(c2ccncc2)CC1)n1nnc2ccccc21 [Compound 114]
-- reply 0.1 % of control

-- ask Specify reported In Vitro FAAH activity, 100 nM for the compound shown: O=C(N1CCC(c2ccccc2)CC1)n1nnc2ccccc21 [Compound 94]
-- reply 0 % of control

-- ask Specify reported In Vitro FAAH activity, 100 nM for the compound shown: CCCCOc1ccc(OC2CCN(C(=O)n3nnc4ccccc43)CC2)cc1 [Compound 168]
-- reply 0 % of control

-- ask Specify reported In Vitro FAAH activity, 100 nM for the compound shown: COc1ccc(-c2ncn(C(=O)N3CCOCC3)n2)cc1 [Compound 65]
-- reply 86.5 % of control

-- ask Specify reported In Vitro FAAH activity, 100 nM for the compound shown: CN(C(=O)n1cnc(-c2ccc(O)cc2)c1)c1ccccc1 [Compound 38]
-- reply 83.9 % of control

-- ask Specify reported In Vitro FAAH activity, 100 nM for the compound shown: O=C(NCCCCc1ccccc1)n1nnc2ccccc21 [Compound 85]
-- reply 0.1 % of control

-- ask Specify reported In Vitro FAAH activity, 100 nM for the compound shown: O=C(N1CCN(Cc2ccc3c(c2)OCO3)CC1)n1nnc2ccccc21.O=C(O)C(=O)O [Compound 48]
-- reply 0.1 % of control

-- ask Specify reported In Vitro FAAH activity, 100 nM for the compound shown: CN(C)C(=O)n1cnc(-c2ccc(N3CCN(c4ccccc4)CC3)cc2)n1 [Compound 138]
-- reply 83.8 % of control

-- ask Specify reported In Vitro FAAH activity, 100 nM for the compound shown: CCC1CN(C(=O)n2cnc(-c3ccc(Cl)cc3)c2)C(C)(C)O1 (centres unmarked) [Compound 267]
-- reply 84.1 % of control

-- ask Specify reported In Vitro FAAH activity, 100 nM for the compound shown: CN(C(=O)n1cnc(-c2ccc3ccccc3c2)c1)c1ccccc1 [Compound 14]
-- reply 68.3 % of control

-- ask Specify reported In Vitro FAAH activity, 100 nM for the compound shown: CN(C(=O)n1nnc2ccccc21)C1CCCCC1 [Compound 58]
-- reply 1 % of control

-- ask Specify reported In Vitro FAAH activity, 100 nM for the compound shown: CN(C(=O)n1cncn1)c1ccccc1 [Compound 7]
-- reply 17 % of control
